# credit: the kinase profiling compilation of Christmann-Franck et al. (2016)

tested on: FGFR3 (human) (UniProt P22607)
Sequence (P22607 whole entry, looked up): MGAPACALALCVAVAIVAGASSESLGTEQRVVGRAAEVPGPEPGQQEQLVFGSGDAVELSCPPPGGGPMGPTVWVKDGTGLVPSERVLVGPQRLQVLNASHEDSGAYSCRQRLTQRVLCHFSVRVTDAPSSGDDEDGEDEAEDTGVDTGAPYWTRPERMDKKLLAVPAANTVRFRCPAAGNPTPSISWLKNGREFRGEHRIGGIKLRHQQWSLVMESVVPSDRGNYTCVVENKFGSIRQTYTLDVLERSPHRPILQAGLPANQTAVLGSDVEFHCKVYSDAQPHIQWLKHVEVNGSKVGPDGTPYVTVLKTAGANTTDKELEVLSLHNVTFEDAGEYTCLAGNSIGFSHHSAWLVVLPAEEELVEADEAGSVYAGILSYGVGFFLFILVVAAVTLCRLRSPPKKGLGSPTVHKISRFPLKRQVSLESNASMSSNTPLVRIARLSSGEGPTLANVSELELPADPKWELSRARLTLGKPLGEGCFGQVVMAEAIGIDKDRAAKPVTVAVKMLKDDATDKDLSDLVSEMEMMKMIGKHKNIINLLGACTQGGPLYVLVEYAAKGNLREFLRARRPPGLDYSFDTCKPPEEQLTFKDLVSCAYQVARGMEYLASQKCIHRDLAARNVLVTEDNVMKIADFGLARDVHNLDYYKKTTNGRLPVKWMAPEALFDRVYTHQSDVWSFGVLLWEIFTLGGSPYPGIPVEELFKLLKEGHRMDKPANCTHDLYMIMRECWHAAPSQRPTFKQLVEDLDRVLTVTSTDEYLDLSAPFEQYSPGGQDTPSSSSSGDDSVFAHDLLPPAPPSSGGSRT
test summary: KINOMEscan competition binding
assay context: compound 10.0 µM
endpoint name: kinase still bound, per cent of control (%)
All answers are understood in %, so give the number only.

As a guide, the following entries are already answered.
COc1ccc(N(C(=O)Oc2cc(C(=O)Nc3cccc(C(F)(F)F)c3)ccc2C)c2ccnc(Nc3ccc(N4CCN(C)CC4)cc3)n2)c(OC)c1
3.7
CCCS(=O)(=O)Nc1ccc(F)c(C(=O)c2c[nH]c3ncc(Cl)cc23)c1F
71
CCN1CCN(Cc2ccc(NC(=O)c3ccc(C)c(/C=C/c4cnc5[nH]ccc5c4OC)c3)cc2C(F)(F)F)CC1
1.8

Query: Missing value: kinase still bound, per cent of control, FGFR3 (human) (UniProt P22607), entry N#Cc1cc(-c2ccnc(Nc3ccc(-n4cnc(-c5cccnc5)n4)cc3)n2)cc(N2CCOCC2)c1 . Fill in?
Result: 74

Query: Missing value: kinase still bound, per cent of control, FGFR3 (human) (UniProt P22607), entry COc1cc2ncnc(Nc3cccc(Cl)c3)c2cc1OC . Fill in?
Result: 99

Query: Missing value: kinase still bound, per cent of control, FGFR3 (human) (UniProt P22607), entry COc1cc(N2CCC(C(N)=O)CC2)ccc1Nc1nc(N)c(Cl)c(Nc2ccccc2S(=O)(=O)C(C)C)n1 . Fill in?
Result: 100

Query: Missing value: kinase still bound, per cent of control, FGFR3 (human) (UniProt P22607), entry CCN(CCO)CCCOc1ccc2c(Nc3cc(CC(=O)Nc4cccc(F)c4)[nH]n3)ncnc2c1 . Fill in?
Result: 92

Query: Missing value: kinase still bound, per cent of control, FGFR3 (human) (UniProt P22607), entry CNC(=O)Nc1ccc(-c2nc(N3CC4CCC(C3)O4)c3cnn(C4CCC5(CC4)OCCO5)c3n2)cc1 . Fill in?
Result: 83

Query: Missing value: kinase still bound, per cent of control, FGFR3 (human) (UniProt P22607), entry COc1cc(C)c(Sc2cnc(NC(=O)c3ccc(CNC(C)C(C)C)cc3)s2)cc1C(=O)N1CCN(C(C)=O)CC1 (configuration not stated) . Fill in?
Result: 100
